system: HepG2; experiment: cell viability relative to DMSO; higher = less toxic; settings: 72 h; 1000 nM
Measured cell viability, listed per entry.
Answers without a unit are incomplete; give the number and then its unit.

molecule: Cn1c(=O)cc(N2CCC[C@@H](N)C2)n(Cc2cc(F)ccc2C#N)c1=O
cell viability: 96.5%

molecule: c1ccc(C(O[C@@H]2CCCN(CCc3ccc4c(c3)OCO4)C2)c2ccccc2)cc1
cell viability: 108%

molecule: CCOC(=O)[C@@H](N)CCC(=O)N[C@@H](CSCc1ccccc1)C(=O)N[C@@H](C(=O)OCC)c1ccccc1
cell viability: 97.1%

molecule: Cc1onc(-c2ccccc2)c1C(=O)N[C@@H]1C(=O)N2[C@@H]1SC(C)(C)[C@@H]2C(=O)O
cell viability: 114%

molecule: Oc1cc2c(cc1O)[C@H]1c3ccccc3CN[C@@H]1CC2 (racemic) [dihydrexidine]
cell viability: 93.2%

-- ask cell viability for COCCCOc1cc(C[C@@H](C[C@H](N)[C@@H](O)C[C@H](C(=O)NCC(C)(C)C(N)=O)C(C)C)C(C)C)ccc1OC [aliskiren-hemifumarate] ?
-- reply 87.5%

-- ask Check COCCCC/C(=N\OCCN)c1ccc(C(F)(F)F)cc1 too.
-- reply 105%

-- ask Then C[C@H]1C[C@@H]2[C@H]([C@@H](O)C[C@@]3(C)[C@H]2CC[C@]3(O)C(=O)CO)[C@@]2(C)C=CC(=O)C=C12 ?
-- reply 98.5%

-- ask Then Cc1ccccc1-n1c(CF)nc2ccc(N)cc2c1=O ?
-- reply 83.3%

-- ask What do you get for N=C(N)SCc1ccc(B(O)O)cc1 ?
-- reply 88.6%

-- ask Proceed to CCC(O)(CC(N)=O)c1ccccc1 (stereo unspecified) [3-hydroxy-3-phenylpentanamide]
-- reply 100%

-- ask # iterate: c1cc(CN2CCCCC2)cc(OCCCNc2nc3ccccc3s2)c1 [zolantidine]
-- reply 102%

-- ask Continue with CC(OC(=O)NCC1(CC(=O)O)CCCCC1)OC(=O)C(C)C (stereo unspecified)
-- reply 90.1%

-- ask Query Nc1nc(=O)n([C@H]2C[C@H](O)[C@@H](CO)O2)cc1Cl next
-- reply 93.5%

-- ask Now consider O=C(O)c1nc(=O)[nH]c(=O)[nH]1 .
-- reply 115%

-- ask Do the same for CC(C)C(=O)OC[C@@]1(N=[N+]=[N-])O[C@@H](n2ccc(N)nc2=O)[C@H](OC(=O)C(C)C)[C@@H]1OC(=O)C(C)C please
-- reply 102%

-- ask Consider next the molecule CCOc1cc(C(=O)N2CCC(N3CCN(C)CC3)CC2)ccc1Nc1ncc2c(n1)N(C1CCCC1)c1ccccc1C(=O)N2C in the same way.
-- reply 76.9%

-- ask # repeat for CCCNS(=O)(=O)Nc1ncnc(OCCOc2ncc(Br)cn2)c1-c1ccc(Br)cc1
-- reply 85.5%

-- ask Please do the same for Oc1noc2c1CCNC2 as well.
-- reply 101%

-- ask Please answer likewise for CC(=O)NCC(=O)N[C@H](CCC(=O)O)C(=O)O
-- reply 102%

-- ask Then what about the molecule NC(=O)c1ncn([C@@H]2O[C@H](CO)[C@@H](O)[C@H]2O)c1O ?
-- reply 96.2%

====

test system: HepG2; assay: relative viability EC50 (midpoint between 100% and the lowest measured viability); higher = less toxic; conditions: 72 h
experimental readout: relative viability EC50

Below are worked cases with known answers.
compound: CCCCc1ccc2[nH]c(NC(=O)OC)nc2c1 [parbendazole]
relative viability EC50: 0.641 µM
//
compound: Cc1onc(-c2ccccc2)c1C(=O)N[C@@H]1C(=O)N2[C@@H]1SC(C)(C)[C@@H]2C(=O)O [oxacillin]
relative viability EC50: > 10 µM
//
compound: OC[C@@H](O)[C@@H](O[C@@H]1O[C@H](CO)[C@H](O)[C@H](O)[C@H]1O)[C@H](O)[C@@H](O)CO [D-LACTITOL MONOHYDRATE]
relative viability EC50: > 10 µM
//
compound: NC(=O)c1ncn([C@@H]2O[C@H](CO)[C@@H](O)[C@H]2O)c1O [mizoribine]
relative viability EC50: > 10 µM
//
compound: CCOc1nc2c(N)ncnc2n1CC [ANR-94]
relative viability EC50: > 10 µM

-- ask What value of measured relative viability EC50 is listed for c1cc(CN2CCCCC2)cc(OCCCNc2nc3ccccc3s2)c1 [zolantidine] ?
-- reply > 10 µM

-- ask Queued: CC(=O)Nc1ccc(O)cc1 [paracetamol]
-- reply > 10 µM

-- ask // next record Cc1c(C(=O)Nc2ccc(N3CCC(N4CCOCC4)CC3)c(C#N)c2)cnn1-c1ccc(Cl)cc1 [Y-320]
-- reply 1.42 µM

-- ask Now the compound O=C(OCCO)c1ccccc1O [2-hydroxyethyl-salicylate]
-- reply > 10 µM

-- ask Entry COC(=O)C1=C(C)NC(C)=C(C(=O)OCCCN2CCC(c3ccccc3)(c3ccccc3)CC2)[C@@H]1c1cccc([N+](=O)[O-])c1 [dexniguldipine] please
-- reply 3.26 µM

-- ask Now give it for CCCN(CCC)S(=O)(=O)c1ccc(C(=O)O)cc1 [probenecid] too.
-- reply > 10 µM

-- ask Next compound up: CCOc1cc(C(=O)N2CCC(N3CCN(C)CC3)CC2)ccc1Nc1ncc2c(n1)N(C1CCCC1)c1ccccc1C(=O)N2C [XMD17-109]
-- reply 1.45 µM

-- ask // repeat for O=C(Nc1ccc([N+](=O)[O-])cc1Cl)c1cc(Cl)ccc1O [niclosamide] and report
-- reply 3.01 µM

-- ask And for O=C1NCCN1CCN1CCC(c2cn(-c3ccc(F)cc3)c3ccc(Cl)cc23)CC1 [sertindole] ?
-- reply 1.95 µM

-- ask Then Clc1cccc(Cl)c1CSc1nnc(-c2cnccn2)s1 [yoda-1] ?
-- reply > 10 µM

-- ask Further, for CCc1ccc(C2=CC(C)(C)Sc3ccc(C#Cc4ccc(C(=O)O)cc4)cc32)cc1 ?
-- reply > 10 µM

-- ask Proceed to CN(C)CCOC1=Cc2ccccc2Sc2ccc(Cl)cc21 [zotepine]
-- reply 1.98 µM

-- ask Likewise for N=C(N)SCc1ccc(B(O)O)cc1 [BC-11] ?
-- reply > 10 µM

====

system: Caco-2; assay: cell viability relative to DMSO; higher = less toxic; details: 72 h; 1000 nM
# Lookup of reported cell viability keyed by entry
Give the number; % is assumed, so skip it.

Recorded results for 5 compounds are shown here.
compound: Cc1c(-c2ccnn2C)cc(C(=O)NCc2ccc(S(C)(=O)=O)cn2)c(=O)n1-c1cccc(C(F)(F)F)c1
measurement unit: %
cell viability: 96.9

compound: CC(C)C(=O)OC[C@@]1(N=[N+]=[N-])O[C@@H](n2ccc(N)nc2=O)[C@H](OC(=O)C(C)C)[C@@H]1OC(=O)C(C)C
measurement unit: %
cell viability: 98.7

compound: Cc1cc(Nc2cc(C)c(C#N)c(N[C@@H](C)CCCC(C)(C)O)n2)n[nH]1
measurement unit: %
cell viability: 77.6

compound: COC(=O)C1=C(C)NC(C)=C(C(=O)OCCCN2CCC(c3ccccc3)(c3ccccc3)CC2)[C@@H]1c1cccc([N+](=O)[O-])c1
measurement unit: %
cell viability: 91.4

compound: O=C(OCCN1CCOCC1)C1(c2ccccc2)CCCCC1
measurement unit: %
cell viability: 90.8

-- ask Hello, I am looking for reported cell viability with Caco-2 for Cc1cc(O)cc(C)c1Cl . Could you help?
-- reply 92

-- ask Also need CCOc1ccccc1-n1c(C(C)N2CCN(C(=O)COc3ccc(Cl)cc3)CC2)nc2ccccc2c1=O (configuration not stated) , thanks.
-- reply 97.1

-- ask Now consider Cc1cc(OCC(=O)O)cc(C)c1Cc1ccc(O)c(C(C)C)c1 .
-- reply 94.7

====

Examples of molecules with documented cell viability follow.
test system: U2OS; test: cell viability relative to DMSO; higher = less toxic; details: 72 h; 1 nM
Output spec: scalar in %, unitless text.

-- ask Given the molecule O=C(Nc1ccccc1)N1CCN(c2nc(-c3ccccc3)ns2)CC1 , what is its reported cell viability?
-- reply 104

-- ask Then OCCCCO ?
-- reply 101

-- ask // repeat for CC(=O)c1cnc2ccc(-c3cc(Cl)c(O)c(Cl)c3)nc2c1N[C@H]1CC[C@H](CN(C)C)CC1 and report
-- reply 97.6

-- ask Same lookup for CCOC(=O)[C@]12CC1/C(=N\O)c1ccccc1O2 (stereo partly drawn) , please.
-- reply 98.7

====

Quick list: drug sensitivity score per entry.
system: U2OS; test: drug sensitivity score (DSS) for viability; higher = more toxic; extreme values may be limits of the assay; conditions: 72 h
// response body must contain only the number

Answered examples (10):
compound: CN1c2cc3c(cc2N=C(c2ccc(C(=O)O)cc2)c2ccccc21)C(C)(C)CCC3(C)C [LE-135]
target under test: U2OS
drug sensitivity score: 2.5
--
compound: CN1C/C=C/CCOc2cccc(c2)-c2ccnc(n2)Nc2cccc(c2)C1 [TG-02]
target under test: U2OS
drug sensitivity score: 20
--
compound: O=C(Nc1ccc([N+](=O)[O-])cc1Cl)c1cc(Cl)ccc1O [niclosamide]
target under test: U2OS
drug sensitivity score: 1.2
--
compound: CC(=O)N[C@@H](CCC(N)=O)C(=O)O [aceglutamide]
target under test: U2OS
drug sensitivity score: 0
--
compound: CSC[C@H](N)C(=O)O [S-methylcysteine]
target under test: U2OS
drug sensitivity score: 0
--
compound: CC(=O)c1cnc2ccc(-c3cc(Cl)c(O)c(Cl)c3)nc2c1N[C@H]1CC[C@H](CN(C)C)CC1 [OTS167]
target under test: U2OS
drug sensitivity score: 30.5
--
compound: COCC(=O)Nc1c(I)c(C(=O)NCC(O)CO)c(I)c(C(=O)N(C)CC(O)CO)c1I (centres undefined) [iopromide]
target under test: U2OS
drug sensitivity score: 0
--
compound: Cc1nnc(C(=O)NC(C)(C)c2nc(C(=O)NCc3ccc(F)cc3)c(O)c(=O)n2C)o1 [raltegravir]
target under test: U2OS
drug sensitivity score: 0
--
compound: Fc1ccc(CNc2ncnc3ccc(F)cc23)cc1 [spautin-1]
target under test: U2OS
drug sensitivity score: 0
--
compound: O=C1CCC[C@@H]2[C@H]3C[C@@H](CN12)[C@@H]1CCCCN1C3 [lupanine]
target under test: U2OS
drug sensitivity score: 0

-- ask Give drug sensitivity score (U2OS) of the following compound: CCOc1nc2cccc(C(=O)O)c2n1Cc1ccc(-c2ccccc2-c2nnn[nH]2)cc1 [candesartan]
-- reply 0

-- ask Same for Cc1cc(O)cc2c1O[C@](C)(CCC[C@H](C)CCC[C@H](C)CCCC(C)C)CC2 [D-delta-tocopherol]
-- reply 0
